Entries and their EC100% values follow.
Biological target: human pancreas Glucokinase (GK) (Homo sapiens)
Construct: (His)6; made in house; host or cells: Escherichia coli
Experiment: Glucokinase enzyme assay, Pancreas GK data
Format: biochemical
Details: concentration producing 100% activation above vehicle control
Description: An enzymatic Glucokinase (GK) assay using purified recombinant human liver/pancreas enzyme was used to evaluate the effects of potential small molecule modulators. In this assay, GK catalyzes glucose phosphorylation in the presence of ATP. The product of this reaction, glucose-6-phosphate, was then oxidized by an excess of glucose-6-phosphate dehydrogenase to produce gluconate-6-phosphate with concomitant reduction of nicotinamide adenine dinucleotide (NAD). […]

COc1ccc(CN2C(=O)c3ccccc3C2SCC(=O)Nc2ccc(C(=O)O)cn2)cc1OC (stereo not shown) [Compound 56]
2.7 µM

Given the compound O=C(CSC1c2ccccc2C(=O)N1Cc1cccc2ccccc12)Nc1ccccn1 (stereo not shown) [Compound 43] , what is its reported EC100%?
7.1 µM

Given the compound COc1ccc(CN2C(=O)c3ccccc3C2SCC(=O)Nc2ccc(C(=O)O)cn2)cc1 (stereo not shown) [Compound 55] , what is its reported EC100%?
3.4 µM

Given the compound O=C(CSC1c2ccccc2C(=O)N1Cc1ccc(-n2cccc2)cc1)Nc1ccccn1 (stereo not shown) [Compound 46] , what is its reported EC100%?
4.8 µM

* * *

molecular target: human liver Glucokinase (GK) (Homo sapiens, UniProt P35557); construct: (His)6; assay: Glucokinase enzyme assay, Liver GK data; settings: concentration producing 50% activation above vehicle control
Entries and their EC50 values follow.
Reply with just the number (in µM).

Below, 2 compounds whose answers are already recorded.
COC(=O)c1ccc(NC(=O)CSC2c3ccccc3C(=O)N2Cc2cccs2)nc1 (stereo not drawn)
1
CCOC(=O)Cc1csc(NC(=O)CSC2c3ccccc3C(=O)N2Cc2cccs2)n1 (stereo not drawn)
9

API: the following record is the query input.
# value lookup — system human liver Glucokinase (GK) (Homo sapiens, UniProt P35557), readout EC50, item CN(C)c1ccc(CN2C(=O)c3ccccc3C2SCC(=O)Nc2nccs2)cc1 (stereo not drawn)
2.6

* * *

Biological target: human pancreas Glucokinase (GK) (Homo sapiens, UniProt P35557)
Construct: (His)6; made in house; host or cells: Escherichia coli
Experiment: Glucokinase enzyme assay, Pancreas GK data
Type: biochemical
Conditions: concentration producing 50% activation above vehicle control
Excerpt: An enzymatic Glucokinase (GK) assay using purified recombinant human liver/pancreas enzyme was used to evaluate the effects of potential small molecule modulators. In this assay, GK catalyzes glucose phosphorylation in the presence of ATP. The product of this reaction, glucose-6-phosphate, was then oxidized by an excess of glucose-6-phosphate dehydrogenase to produce gluconate-6-phosphate with concomitant reduction of nicotinamide adenine dinucleotide (NAD). […]
Entries and their EC50 values follow.

Below, 4 compounds whose answers are already recorded.
COc1ccc(CN2C(=O)c3ccccc3C2SCC(=O)Nc2ccc(C(=O)O)cn2)cc1OC (centres unmarked)
0.85 µM
Cc1[nH]c2ccc(CN3C(=O)c4ccccc4C3SCC(=O)Nc3ccccn3)cc2c1C (centres unmarked)
0.38 µM
Cc1ccc2c(c1)C(OCC(=O)Nc1cnccn1)N(Cc1ccccc1)C2=O (centres unmarked)
27 µM
COc1ccc(CN2C(=O)c3ccccc3C2SCC(=O)Nc2ccccn2)cc1 (centres unmarked)
0.21 µM

API: the following record is the query input.
Given the compound O=C(CSC1c2ccccc2C(=O)N1Cc1ccc2c(c1)OCCO2)Nc1ccccn1 (centres unmarked) , what is its reported EC50?
1 µM

* * *

Entries and their pEC50 values follow.
Target: human pancreas Glucokinase (GK) (Homo sapiens, UniProt P35557)
Construct: (His)6
Sequence (P35557 1-465): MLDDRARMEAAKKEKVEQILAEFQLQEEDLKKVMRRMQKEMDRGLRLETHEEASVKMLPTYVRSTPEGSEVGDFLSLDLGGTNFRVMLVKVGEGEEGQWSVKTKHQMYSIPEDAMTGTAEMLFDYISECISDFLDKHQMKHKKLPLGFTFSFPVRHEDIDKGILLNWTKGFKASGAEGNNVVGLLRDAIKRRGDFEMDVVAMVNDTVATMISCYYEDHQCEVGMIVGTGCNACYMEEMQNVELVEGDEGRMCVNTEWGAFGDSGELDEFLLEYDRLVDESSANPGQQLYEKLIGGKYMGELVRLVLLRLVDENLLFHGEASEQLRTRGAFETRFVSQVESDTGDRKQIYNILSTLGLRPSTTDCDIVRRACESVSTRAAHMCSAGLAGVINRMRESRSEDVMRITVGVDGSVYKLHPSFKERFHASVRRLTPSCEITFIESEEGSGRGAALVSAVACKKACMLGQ
Assay: Glucokinase enzyme assay, Pancreas GK data
Conditions: concentration producing 50% activation above vehicle control
# pEC50 = -log10(concentration in molar units)

Below, 2 compounds whose answers are already recorded.
O=C(CSC1c2ccccc2C(=O)N1Cc1ccc(-n2cccn2)cc1)Nc1ccccn1 (stereo not drawn) [Compound 47]
6.10
O=C(CSC1c2ccccc2C(=O)N1Cc1ccc(OC(F)(F)F)cc1)Nc1ccccn1 (stereo not drawn) [Compound 48]
5.80

API: the following record is the query input.
# value lookup — system human pancreas Glucokinase (GK) (Homo sapiens, UniProt P35557), readout pEC50, item COC(=O)c1ccc(NC(=O)COC2c3cc(C)ccc3C(=O)N2Cc2ccccc2)nc1 (stereo not drawn) [Compound 59]
5.48
